- System: Staph. aureus (SG 511)
- protocol-description: Agar dilution test according to Lorian (antibacterial activity)
- Type: cell-based
- assay-context: Staphylococcus aureus
quantity-name: log10(MIC) (log10 of the value in µg/mL)

compound="COC1CC(CC2CCC(C)C(C(C)C(=O)O)O2)OC2(OC(C)(C3CCC(C)(C4OC(C5OC(O)(COC(=O)C=C(C)C(=O)O)C(C)CC5C)CC4C)O3)CC2C)C1C (stereo not shown)" quantity_name=log10(MIC) measured_result=0.80
compound="CCCCCCCCCCCCCCCCCCCCCC(=O)OCC1(O)OC(C2CC(C)C(C3(C)CCC(C4(C)CC(C)C5(OC(CC6CCC(C)C(C(C)C(=O)O)O6)CC(OC)C5C)O4)O3)O2)C(C)CC1C (stereo not shown)" quantity_name=log10(MIC) measured_result=2.00
compound="COC1CC(CC2CCC(C)C(C(C)C(=O)O)O2)OC2(OC(C)(C3CCC(C)(C4OC(C5OC(O)(COC(=O)CCCC(=O)O)C(C)CC5C)CC4C)O3)CC2C)C1C (stereo not shown)" quantity_name=log10(MIC) measured_result=-0.41
compound="COC1CC(CC2CCC(C)C(C(C)C(=O)O)O2)OC2(OC(C)(C3CCC(C)(C4OC(C5OC(O)(COC(=O)c6c(Br)c(Br)c(Br)c(Br)c6C(=O)O)C(C)CC5C)CC4C)O3)CC2C)C1C (stereo not shown)" quantity_name=log10(MIC) measured_result=0.19
compound="COC1CC(CC2CCC(C)C(C(C)C(=O)O)O2)OC2(OC(C)(C3CCC(C)(C4OC(C5OC(O)(COC(=O)C(C)C)C(C)CC5C)CC4C)O3)CC2C)C1C (stereo not shown)" quantity_name=log10(MIC) measured_result=-0.41
compound="COC1CC(CC2CCC(C)C(C(C)C(=O)O)O2)OC2(OC(C)(C3CCC(C)(C4OC(C5OC(O)(COC(=O)c6ccccc6C(=O)O)C(C)CC5C)CC4C)O3)CC2C)C1C (stereo not shown)" quantity_name=log10(MIC) measured_result=-0.11
compound="COC1CC(CC2CCC(C)C(C(C)C(=O)O)O2)OC2(OC(C)(C3CCC(C)(C4OC(C5OC(COS(C)(=O)=O)(OC)C(C)CC5C)CC4C)O3)CC2C)C1C (stereo not shown)" quantity_name=log10(MIC) measured_result=1.40

* * *

- Test system: Strept. faecium (D)
- protocol-description: Agar dilution test according to Lorian (antibacterial activity)
- Type: cell-based
- assay-context: Müller Hinton Agar, 16 to 18 h at 37 C; lowest concentration fully preventing growth
- From the text: Die antibakterielle Wirksamkeit der erfindungsgemäßen Verbindungen wurde im Agar-Verdünnungstest nach Lorian (Antibiotics in Laboratory Medicine, Williams & Wilkins, Baltimore/London, 1980) bestimmt. Dabei wurden die Präparate in einer geometrischen Verdünnungsreihe mit dem Faktor 2 in Müller Hinton Agar verdünnt. Eine Petrischale enthielt nur Müller Hinton Agar und diente zur Kontrolle des Bakterienwachstums. […]
quantity-name: MIC

compound="COC1CC(CC2CCC(C)C(C(C)C(=O)O)O2)OC2(OC(C)(C3CCC(C)(C4OC(C5OC(O)(COC(=O)c6ccccc6)C(C)CC5C)CC4C)O3)CC2C)C1C (stereo not drawn)" measured_result="0,391 µg/ml"
compound="COC1CC(CC2CCC(C)C(C(C)C(=O)O)O2)OC2(OC(C)(C3CCC(C)(C4OC(C5OC(O)(COC(=O)c6cccs6)C(C)CC5C)CC4C)O3)CC2C)C1C (stereo not drawn)" measured_result="0,195 µg/ml"
compound="COC1CC(CC2CCC(C)C(C(C)C(=O)O)O2)OC2(OC(C)(C3CCC(C)(C4OC(C5OC(O)(COC(=O)Nc6ccc(Cl)cc6)C(C)CC5C)CC4C)O3)CC2C)C1C (stereo not drawn)" measured_result="100,0 µg/ml"

* * *

- Tested on: Staph. aureus (285)
- protocol-description: Agar dilution test according to Lorian (antibacterial activity)
- Assay type: cell-based
- assay-context: Müller Hinton Agar, 16 to 18 h at 37 C; lowest concentration fully preventing growth
Catalogue of MIC readings, one per entry.
quantity-name: MIC

compound="COC1CC(CC2CCC(C)C(C(C)C(=O)O)O2)OC2(OC(C)(C3CCC(C)(C4OC(C5OC(O)(COC(=O)c6ccccc6)C(C)CC5C)CC4C)O3)CC2C)C1C (centres unmarked)" measured_result="0,391 µg/ml"
compound="COC1CC(CC2CCC(C)C(C(C)C(=O)O)O2)OC2(OC(C)(C3CCC(C)(C4OC(C5OC(O)(COC(C)=O)C(C)CC5C)CC4C)O3)CC2C)C1C (centres unmarked)" measured_result="0,391 µg/ml"
compound="COC1CC(CC2CCC(C)C(C(C)C(=O)O)O2)OC2(OC(C)(C3CCC(C)(C4OC(C5OC(O)(COC(=O)c6ccco6)C(C)CC5C)CC4C)O3)CC2C)C1C (centres unmarked)" measured_result="0,391 µg/ml"
compound="COC1CC(CC2CCC(C)C(C(C)C(=O)O)O2)OC2(OC(C)(C3CCC(C)(C4OC(C5OC(CO)(OC)C(C)CC5C)CC4C)O3)CC2C)C1C (centres unmarked)" measured_result="1,56 µg/ml"
compound="CCCCCCCCCCCC(=O)OCC1(O)OC(C2CC(C)C(C3(C)CCC(C4(C)CC(C)C5(OC(CC6CCC(C)C(C(C)C(=O)O)O6)CC(OC)C5C)O4)O3)O2)C(C)CC1C (centres unmarked)" measured_result="6,25 µg/ml"
compound="COC1CC(CC2CCC(C)C(C(C)C(=O)[O-])O2)OC2(OC(C)(C3CCC(C)(C4OC(C5OC(O)(COC(=O)CCC(=O)[O-])C(C)CC5C)CC4C)O3)CC2C)C1C.[Mg+2] (centres unmarked)" measured_result="0,098 µg/ml"
compound="COC1CC(CC2CCC(C)C(C(C)C(=O)O)O2)OC2(OC(C)(C3CCC(C)(C4OC(C5OC(O)(COC(=O)c6cccs6)C(C)CC5C)CC4C)O3)CC2C)C1C (centres unmarked)" measured_result="0,195 µg/ml"
compound="COC1CC(CC2CCC(C)C(C(C)C(=O)O)O2)OC2(OC(C)(C3CCC(C)(C4OC(C5OC(O)(COC(=O)NCc6ccccc6)C(C)CC5C)CC4C)O3)CC2C)C1C (centres unmarked)" measured_result="6,25 µg/ml"
compound="COC1CC(CC2CCC(C)C(C(C)C(=O)O)O2)OC2(OC(C)(C3CCC(C)(C4OC(C5OC(O)(COS(C)(=O)=O)C(C)CC5C)CC4C)O3)CC2C)C1C (centres unmarked)" measured_result="0,049 µg/ml"
compound="COC1CC(CC2CCC(C)C(C(C)C(=O)O)O2)OC2(OC(C)(C3CCC(C)(C4OC(C5OC(O)(COC(=O)Nc6ccccc6)C(C)CC5C)CC4C)O3)CC2C)C1C (centres unmarked)" measured_result="3,13 µg/ml"
compound="COC1CC(CC2CCC(C)C(C(C)C(=O)O)O2)OC2(OC(C)(C3CCC(C)(C4OC(C5OC(O)(COC(=O)CCC(=O)O)C(C)CC5C)CC4C)O3)CC2C)C1C (centres unmarked)" measured_result="0,195 µg/ml"

* * *

- Tested on: Strept. faecium (D)
- protocol-description: Agar dilution test according to Lorian (antibacterial activity)
- Format: cell-based
- assay-context: Müller Hinton Agar, 16 to 18 h at 37 C; lowest concentration fully preventing growth
quantity-name: MIC

molecule="CCCCCCCCCCCC(=O)OCC1(O)OC(C2CC(C)C(C3(C)CCC(C4(C)CC(C)C5(OC(CC6CCC(C)C(C(C)C(=O)O)O6)CC(OC)C5C)O4)O3)O2)C(C)CC1C (stereo not shown)" system_tested="Strept. faecium (D)" measured_result="6,25 µg/ml"
molecule="COC1CC(CC2CCC(C)C(C(C)C(=O)O)O2)OC2(OC(C)(C3CCC(C)(C4OC(C5OC(O)(COS(C)(=O)=O)C(C)CC5C)CC4C)O3)CC2C)C1C (stereo not shown)" system_tested="Strept. faecium (D)" measured_result="0,195 µg/ml"
molecule="COC1CC(CC2CCC(C)C(C(C)C(=O)[O-])O2)OC2(OC(C)(C3CCC(C)(C4OC(C5OC(O)(COC(=O)CCC(=O)[O-])C(C)CC5C)CC4C)O3)CC2C)C1C.[Mg+2] (stereo not shown)" system_tested="Strept. faecium (D)" measured_result="0,098 µg/ml"
molecule="COC1CC(CC2CCC(C)C(C(C)C(=O)O)O2)OC2(OC(C)(C3CCC(C)(C4OC(C5OC(CO)(OC)C(C)CC5C)CC4C)O3)CC2C)C1C (stereo not shown)" system_tested="Strept. faecium (D)" measured_result="3,13 µg/ml"
molecule="COC1CC(CC2CCC(C)C(C(C)C(=O)O)O2)OC2(OC(C)(C3CCC(C)(C4OC(C5OC(O)(COC(=O)CCC(=O)O)C(C)CC5C)CC4C)O3)CC2C)C1C (stereo not shown)" system_tested="Strept. faecium (D)" measured_result="0,391 µg/ml"
molecule="COC1CC(CC2CCC(C)C(C(C)C(=O)O)O2)OC2(OC(C)(C3CCC(C)(C4OC(C5OC(O)(COC(C)=O)C(C)CC5C)CC4C)O3)CC2C)C1C (stereo not shown)" system_tested="Strept. faecium (D)" measured_result="0,781 µg/ml"
molecule="CCOC1(CO)OC(C2CC(C)C(C3(C)CCC(C4(C)CC(C)C5(OC(CC6CCC(C)C(C(C)C(=O)O)O6)CC(OC)C5C)O4)O3)O2)C(C)CC1C (stereo not shown)" system_tested="Strept. faecium (D)" measured_result="1,56 µg/ml"
